- Tested on: glycerol-induced renal failure model
- test_details: renal-protecting effect (glycerol-induced renal failure model)
- Type: in vivo
- run_conditions: 0.01 - 10 mg/kg i.p., male Wistar rats, 24 hours after 50% glycerol s.c. (p < 0.05)
endpoint_name: suppression of increases of the serum creatinine and of urine-nitrogen

Solved cases below.
>>> result("CCCn1c(=O)c2c(nc([C@H]3C[C@@H]4C=C[C@@H]3C4)n2C)n(CCC)c1=O (relative stereo)")
"significantly suppressed"
>>> result("Cn1c(=O)c2[nH]cnc2n(C)c1=O [Aminophylline, reference compound]")
"weak effect"
>>> result("CCCn1c(=O)[nH]c(=O)c2[nH]c([C@@H]3CC[C@H]4CCC[C@H]43)nc21 (relative stereo)")
"significantly suppressed"
>>> result("CCCn1c(=O)c2[nH]c(-c3ccc(OCC(=O)NCCN)cc3)nc2n(CCC)c1=O [XAC, reference compound]")
"weak effect"

Req: Notebook: pull reported suppression of increases of the serum creatinine and of urine-nitrogen for glycerol-induced renal failure model, entry CCCn1c(=O)c2[nH]c(C(C)Cc3ccncc3)nc2n(CCC)c1=O (centres unmarked)
Resp: significantly suppressed

Req: Proceed to CCCn1c(=O)c2[nH]c(C34CC5CC(CC(C5)C3)C4)nc2n(CCC)c1=O
Resp: significantly suppressed

Req: Proceed to CCCn1c(=O)[nH]c(=O)c2[nH]c(C34CC5CC(CC3C5)C4)nc21
Resp: significantly suppressed

Req: Proceed to CCCn1c(=O)c2[nH]c(C(C)Cc3csc(C)n3)nc2n(CCC)c1=O (centres unmarked)
Resp: significantly suppressed

Req: Proceed to CCCn1c(=O)c2nc(C34CC5CC(CC3C5)C4)[nH]c2n(CCC)c1=S
Resp: significantly suppressed

Req: Proceed to CCCn1c(=O)c2[nH]c(C34CC5CC(CC3C5)C4)nc2n(CCC)c1=O
Resp: significantly suppressed

* * *

- study_system: A₂ receptor (Rattus norvegicus)
- Construct: A precipitate was prepared from rat corpus striatum; from tissue; host or cells: rat corpus striatum membrane preparation
- Sequence (P30543 whole entry): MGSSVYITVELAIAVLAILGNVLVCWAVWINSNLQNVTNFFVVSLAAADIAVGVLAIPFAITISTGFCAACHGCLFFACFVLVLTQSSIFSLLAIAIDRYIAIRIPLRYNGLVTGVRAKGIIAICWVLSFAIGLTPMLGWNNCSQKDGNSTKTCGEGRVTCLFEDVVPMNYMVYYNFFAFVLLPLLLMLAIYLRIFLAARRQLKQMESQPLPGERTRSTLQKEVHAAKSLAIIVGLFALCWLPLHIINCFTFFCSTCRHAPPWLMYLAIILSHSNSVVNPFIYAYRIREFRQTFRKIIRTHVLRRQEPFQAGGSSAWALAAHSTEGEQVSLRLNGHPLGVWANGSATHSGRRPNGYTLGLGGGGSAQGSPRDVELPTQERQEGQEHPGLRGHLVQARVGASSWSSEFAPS
- test_details: Adenosine A2 receptor binding (3H-NECA binding)
- run_conditions: read-out: A₂ Receptor Inhibition (%)
endpoint_name: inhibition at 10 µM (%)
Quick reminder: number only, in %, skip the unit.

Req: Notebook: pull reported inhibition at 10 µM for A₂ receptor (Rattus norvegicus), entry CCn1c(=O)c2[nH]c(C34CC5CC(CC3C5)C4)nc2n(CC)c1=O [Compound 28]
Resp: 61

Req: Proceed to CCCn1c(=O)c2[nH]c(C34CC5CC(CC(C5)C3)C4)nc2n(CCC)c1=O [Compound 13, 8-(Adamantan-1-yl)-1,3-dipropylxanthine]
Resp: 63

Req: Proceed to CCCn1c(=O)c2[nH]c(C34CC5CC(CC3C5)C4)nc2n(CCC)c1=O [Compound 14]
Resp: 63

* * *

- study_system: A₂ receptor (Rattus norvegicus)
- Construct: A precipitate was prepared from rat corpus striatum; from tissue; host or cells: rat corpus striatum membrane preparation
- test_details: Adenosine A2 receptor binding (3H-NECA binding)
endpoint_name: Ki (nM)
Quick reminder: number only, in nM, skip the unit.

Req: So what's the measured Ki for this one? Nc1nc2ccc(Cl)cc2c2nc(-c3ccco3)nn12 [CGS 15943, reference compound]
Resp: 0.73

* * *

- study_system: A₂ receptor (Rattus norvegicus)
- Construct: A precipitate was prepared from rat corpus striatum; from tissue; host or cells: rat corpus striatum membrane preparation
- test_details: Adenosine A2 receptor binding (3H-NECA binding)
- run_conditions: ³H-NECA with CPA, rat corpus striatum; read-out: A₂ Receptor Ki
Catalogue of compounds with associated Ki
Quick reminder: number only, in nM, skip the unit.

Solved cases below.
>>> recorded_number("CCCn1c(=O)c2[nH]c([C@H]3C[C@H]4CC[C@@H]3C4)nc2n(CCC)c1=O (relative stereo)")
330
>>> recorded_number("CCCn1c(=O)c2[nH]c(C34CC5CC(CC3C5)C4)nc2n(CCC)c1=O")
380
>>> recorded_number("CCCn1c(=O)c2[nH]c([C@H]3C[C@@H]4C=C[C@@H]3C4)nc2n(CCC)c1=O (relative stereo)")
510
>>> recorded_number("CCn1c(=O)c2[nH]c(C34CC5CC(CC3C5)C4)nc2n(CC)c1=O")
940
>>> recorded_number("CCCCn1c(=O)c2[nH]c(C34CC5CC(CC3C5)C4)nc2n(CCCC)c1=O")
970
>>> recorded_number("CCCn1c(=O)c2[nH]c([C@@H]3CC[C@H]4CCC[C@H]43)nc2n(CCC)c1=O (relative stereo)")
330

Req: So what's the measured Ki for this one? CCCn1c(=O)c2[nH]c(-c3ccc(S(=O)(=O)N(C)CCN(C)C)cc3)nc2n(CCC)c1=O [PD 115199, reference compound]
Resp: 26

Req: Proceed to CCCn1c(=O)c2[nH]c([C@H]3CC[C@H]4CCC[C@H]43)nc2n(CCC)c1=O (relative stereo)
Resp: 560
